- study-system: SHP2 protein (Homo sapiens, UniProt Q06124)
- Sequence (Q06124 1-593): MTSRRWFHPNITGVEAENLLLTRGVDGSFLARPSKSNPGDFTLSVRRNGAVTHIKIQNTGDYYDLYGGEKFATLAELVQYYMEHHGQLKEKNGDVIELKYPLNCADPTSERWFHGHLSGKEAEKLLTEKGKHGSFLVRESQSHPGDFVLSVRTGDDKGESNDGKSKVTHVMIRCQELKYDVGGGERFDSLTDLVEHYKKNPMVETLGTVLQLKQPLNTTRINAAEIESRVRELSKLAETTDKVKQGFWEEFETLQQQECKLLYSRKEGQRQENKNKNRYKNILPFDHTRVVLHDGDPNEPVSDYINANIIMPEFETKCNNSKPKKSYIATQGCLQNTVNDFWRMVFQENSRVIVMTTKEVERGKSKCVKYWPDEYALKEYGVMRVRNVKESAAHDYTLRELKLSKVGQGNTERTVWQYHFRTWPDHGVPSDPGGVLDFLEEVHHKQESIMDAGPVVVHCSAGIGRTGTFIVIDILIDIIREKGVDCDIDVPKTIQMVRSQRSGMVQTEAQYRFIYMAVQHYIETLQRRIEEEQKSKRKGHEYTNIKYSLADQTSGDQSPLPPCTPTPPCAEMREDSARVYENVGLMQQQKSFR
- run-description: Measurement of SHP2 protein degradation in NCI-H358 cells (western blotting)
- Format: cell-based
- Parameters: endogenous in cells; host or cells: NCI-H358
- test-parameters: 0.1 μM, harvested after 24 hours
measured-endpoint: SHP2% degradation (%)

Some solved cases for reference:
compound	study-system	SHP2% degradation [%]
Cc1ncsc1-c1ccc(CNC(=O)[C@@H]2C[C@@H](O)CN2C(=O)[C@@H](NC(=O)C2(F)CC2)C(C)(C)C)c(O[C@H]2CC[C@H](C(=O)N3CC(Nc4nccc(Sc5cnc(N6CCC7(CC6)CO[C@@H](C)[C@H]7N)cn5)c4Cl)C3)CC2)c1 [Example 22]	SHP2 protein (Homo sapiens, UniProt Q06124)	97.1
Cc1cc(C(C(=O)N2C[C@H](O)C[C@H]2C(=O)NCc2ccc(-c3scnc3C)cc2O[C@H]2CC[C@H](C(=O)N3CC(Nc4cccc(Sc5cnc(N6CCC(C)(CN)CC6)cn5)c4Cl)C3)CC2)C(C)C)on1 (some centres unmarked) [Example 115]	SHP2 protein (Homo sapiens, UniProt Q06124)	99.2
Cc1ncsc1-c1ccc(CNC(=O)[C@@H]2C[C@@H](O)CN2C(=O)[C@@H](n2cc(C3CC3)nn2)C(C)(C)C)c(OC2CCN(C(=O)C3CCN(c4nccc(Sc5cnc(N6CCC(C)(CN)CC6)cn5)c4Cl)CC3)CC2)c1 [Example 107]	SHP2 protein (Homo sapiens, UniProt Q06124)	99.2
CC(=O)N[C@H](C(=O)N1C[C@H](O)C[C@H]1C(=O)NCc1ccc(-c2scnc2C)cc1OC1CCN(C(=O)C2CCN(c3nccc(Sc4cnc(N5CCC(C)(CN)CC5)c(CO)n4)c3Cl)CC2)CC1)C(C)(C)C [Example 78]	SHP2 protein (Homo sapiens, UniProt Q06124)	99.4
Cc1ncsc1-c1ccc(CNC(=O)[C@@H]2C[C@@H](O)CN2C(=O)[C@@H](NC(=O)CO)C(C)(C)C)c(OC2CCN(C(=O)C3CCN(c4nccc(Sc5cnc(N6CCC7(CC6)CO[C@@H](C)[C@H]7N)c(CO)n5)c4Cl)CC3)CC2)c1 [Example 89]	SHP2 protein (Homo sapiens, UniProt Q06124)	99.9
Cc1cnn(C(C(=O)N2C[C@H](O)C[C@H]2C(=O)NCc2ccc(-c3scnc3C)cc2OC2CCN(C(=O)C3CCN(c4nccc(Sc5cnc(N6CCC(C)(CN)CC6)cn5)c4Cl)CC3)CC2)C(C)C)c1 (some centres unmarked) [Example 99]	SHP2 protein (Homo sapiens, UniProt Q06124)	91.5

[I] Cc1cnn(C(C(=O)N2C[C@H](O)C[C@H]2C(=O)NCc2ccc(-c3scnc3C)cc2OC2CCN(C(=O)C3CCN(c4nccc(Sc5cnc(N6CCC(C)(CN)CC6)cn5)c4Cl)CC3)CC2)C(C)C)c1 (some centres unmarked) [Example 100]
[II] CC(=O)N[C@H](C(=O)N1C[C@H](O)C[C@H]1C(=O)NCc1ccc(-c2scnc2C)cc1O[C@H]1CC[C@H](C(=O)N2CCC(Nc3nccc(Sc4cnc(N5CCC(C)(N)CC5)cn4)c3Cl)CC2)CC1)C(C)(C)C [Example 42]
Exercise: Identify the entry with the smaller SHP2% degradation: I or II . Give the label of your selection.
Solution: I
(I: −18.7%, II: 98.7%)

----------
- study-system: UniProt Q06124
- run-description: Measurement of SHP2 protein degradation in MV-4-11 cells (western blotting)
- Format: cell-based
- Design: endogenous in cells
- test-parameters: 0.1 μM, harvested after 24 hours
measured-endpoint: SHP2% degradation (%)

compound	study-system	measured-endpoint	endpoint-value
Cc1ncsc1-c1ccc(CNC(=O)[C@@H]2C[C@@H](O)CN2C(=O)[C@@H](NC(=O)C2(F)CC2)C(C)(C)C)c(O[C@H]2CC[C@H](C(=O)N3CCC(Nc4cccc(Sc5cnc(N6CCC(C)(CN)CC6)cn5)c4Cl)CC3)CC2)c1 [Example 17]	UniProt Q06124	SHP2% degradation	96.6
Cc1ncsc1-c1ccc(CNC(=O)[C@@H]2C[C@@H](O)CN2C(=O)[C@@H](NC(=O)C2(F)CC2)C(C)(C)C)c(OCCN2CCN(C(=O)C3CN(c4nccc(Sc5cnc(N6CCC(C)(CN)CC6)cn5)c4Cl)C3)CC2)c1 [Example 53]	UniProt Q06124	SHP2% degradation	99.4
CC(=O)N[C@H](C(=O)N1C[C@H](O)C[C@H]1C(=O)NCc1ccc(-c2scnc2C)cc1O[C@H]1CC[C@H](C(=O)N2CCC(Nc3nccc(Sc4cnc(N5CCC(C)(CN)CC5)cn4)c3Cl)CC2)CC1)C(C)(C)C [Example 41]	UniProt Q06124	SHP2% degradation	99.
Cc1ncsc1-c1ccc(CNC(=O)[C@@H]2C[C@@H](O)CN2C(=O)[C@@H](NC(=O)C2(F)CC2)C(C)(C)C)c(OCCN2CCC(C(=O)N3CC(Nc4cccc(Sc5cnc(N6CCC(C)(CN)CC6)cn5)c4Cl)C3)CC2)c1 [Example 50]	UniProt Q06124	SHP2% degradation	97.6
Cc1ncsc1-c1ccc(CNC(=O)[C@@H]2C[C@@H](O)CN2C(=O)[C@@H](NC(=O)C2(F)CC2)C(C)(C)C)c(OCCN2CCN(CC3CCN(c4nccc(Sc5cnc(N6CCC(C)(CN)CC6)cn5)c4Cl)CC3)CC2)c1 [Example 8]	UniProt Q06124	SHP2% degradation	81.9
Cc1ncsc1-c1ccc(CNC(=O)[C@@H]2C[C@@H](O)CN2C(=O)[C@@H](NC(=O)C2(F)CC2)C(C)(C)C)c(O[C@H]2CC[C@H](C(=O)N3CCC(Nc4nccc(Sc5cnc(N6CCC(C)(N)CC6)cn5)c4Cl)CC3)CC2)c1 [Example 24]	UniProt Q06124	SHP2% degradation	100.0
Cc1ncsc1-c1ccc(CNC(=O)[C@@H]2C[C@@H](O)CN2C(=O)[C@@H](NC(=O)C2(F)CC2)C(C)(C)C)c(OCCN2CCN(CCNc3cccc(Sc4cnc(N5CCC(C)(CN)CC5)cn4)c3Cl)CC2)c1 [Example 2]	UniProt Q06124	SHP2% degradation	80.3
Cc1ncsc1-c1ccc(CNC(=O)[C@@H]2C[C@@H](O)CN2C(=O)[C@@H](NC(=O)C2(F)CC2)C(C)(C)C)c(OC2CCN(C(=O)C3CCN(c4nccc(Sc5cnc(N6CCC(C)(CN)CC6)cn5)c4Cl)CC3)CC2)c1 [Example 65]	UniProt Q06124	SHP2% degradation	98.1
Cc1ncsc1-c1ccc(CNC(=O)[C@@H]2C[C@@H](O)CN2C(=O)[C@@H](NC(=O)C2(F)CC2)C(C)(C)C)c(OCCN2CCN(C(=O)CNc3cccc(Sc4cnc(N5CCC(C)(CN)CC5)cn4)c3Cl)CC2)c1 [Example 4]	UniProt Q06124	SHP2% degradation	95.6

----------
- study-system: SHP2 protein (Homo sapiens)
- Sequence (Q06124 1-593): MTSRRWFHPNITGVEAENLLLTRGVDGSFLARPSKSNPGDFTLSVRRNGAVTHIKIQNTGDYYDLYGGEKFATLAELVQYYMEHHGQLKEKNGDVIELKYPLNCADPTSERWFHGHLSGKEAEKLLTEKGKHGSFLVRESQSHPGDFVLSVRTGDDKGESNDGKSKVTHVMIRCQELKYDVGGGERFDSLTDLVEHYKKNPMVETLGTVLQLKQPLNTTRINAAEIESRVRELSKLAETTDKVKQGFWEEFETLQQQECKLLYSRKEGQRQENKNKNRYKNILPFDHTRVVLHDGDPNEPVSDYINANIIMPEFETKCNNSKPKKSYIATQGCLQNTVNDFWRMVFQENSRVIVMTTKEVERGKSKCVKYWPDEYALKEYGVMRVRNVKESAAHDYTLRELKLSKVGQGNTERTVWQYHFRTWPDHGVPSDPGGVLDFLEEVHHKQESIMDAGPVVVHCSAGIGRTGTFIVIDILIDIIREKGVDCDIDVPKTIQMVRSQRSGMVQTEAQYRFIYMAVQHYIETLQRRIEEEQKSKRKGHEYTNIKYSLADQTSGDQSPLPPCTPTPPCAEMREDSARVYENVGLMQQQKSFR
- run-description: Measurement of SHP2 protein degradation in NCI-H358 cells (western blotting)
- Format: cell-based
- Set-up: endogenous in cells; host or cells: NCI-H358
- test-parameters: 0.01 μM, harvested after 24 hours
measured-endpoint: SHP2% degradation (%)

# annotated cases, reported SHP2% degradation shown
compound	SHP2% degradation [%]
Cc1ncsc1-c1ccc(CNC(=O)[C@@H]2C[C@@H](O)CN2C(=O)[C@H](C(C)C)n2cc(C3CC3)nn2)c(OC2CCN(C(=O)C3CCN(c4nccc(Sc5cnc(N6CCC(C)(N)CC6)cn5)c4Cl)CC3)CC2)c1 [Example 102]	99.4
Cc1cn([C@H](C(=O)N2C[C@H](O)C[C@H]2C(=O)NCc2ccc(C#N)cc2OC2CCN(C(=O)C3CCN(c4nccc(Sc5cnc(N6CCC7(CC6)CO[C@@H](C)[C@H]7N)c(CO)n5)c4Cl)CC3)CC2)C(C)C)nn1 [Example 113]	96.2
CC(=O)N[C@H](C(=O)N1C[C@H](O)C[C@H]1C(=O)NCc1ccc(-c2scnc2C)cc1O[C@H]1CC[C@H](C(=O)N2CCC(c3cccc(Sc4cnc(N5CCC(C)(CN)CC5)cn4)c3Cl)CC2)CC1)C(C)(C)C [Example 46]	33.8
Cc1ncsc1-c1ccc(CNC(=O)[C@@H]2C[C@@H](O)CN2C(=O)[C@H](C(C)C)n2cc(C3CC3)nn2)c(OC2CCN(C(=O)C3CCN(c4nccc(Sc5cnc(N6CCC7(CC6)CO[C@@H](C)[C@H]7N)cn5)c4Cl)CC3)CC2)c1 [Example 103]	99.9
CC(=O)N[C@H](C(=O)N1C[C@H](O)C[C@H]1C(=O)NCc1ccc(-c2scnc2C)cc1O[C@H]1CC[C@H](C(=O)N2CCC(Nc3nccc(Sc4cnc(N5CCC(C)(N)CC5)cn4)c3Cl)CC2)CC1)C(C)(C)C [Example 42]	95.2
Cc1cc(C(C(=O)N2C[C@H](O)C[C@H]2C(=O)NCc2ccc(-c3scnc3C)cc2O[C@H]2CC[C@H](C(=O)N3CC(Nc4cccc(Sc5cnc(N6CCC(C)(CN)CC6)cn5)c4Cl)C3)CC2)C(C)C)on1 (stereo partly drawn) [Example 115]	98.3
Cc1ncsc1-c1ccc(CNC(=O)[C@@H]2C[C@@H](O)CN2C(=O)[C@@H](NC(=O)C2(F)CC2)C(C)(C)C)c(OC2CCN(C(=O)C3CCN(c4nccc(Sc5cnc(N6CCC7(CC6)CO[C@@H](C)[C@H]7N)cn5)c4Cl)CC3)CC2)c1 [Example 67]	94.5

[A] Cc1cc(C(C(=O)N2C[C@H](O)C[C@H]2C(=O)NCc2ccc(-c3scnc3C)cc2OC2CCN(C(=O)C3CCN(c4nccc(Sc5cnc(N6CCC7(CC6)CO[C@@H](C)[C@H]7N)c(CO)n5)c4Cl)CC3)CC2)C(C)C)on1 (stereo partly drawn) [Example 98]
[B] Cc1cc(C(C(=O)N2C[C@H](O)C[C@H]2C(=O)NCc2ccc(-c3scnc3C)cc2OC2CCN(C(=O)C3CCN(c4nccc(Sc5cnc(N6CCC(C)(CN)CC6)cn5)c4Cl)CC3)CC2)C(C)C)on1 (stereo partly drawn) [Example 92]
Exercise: Lab log: flag the item ( A or B ) with the smaller SHP2% degradation figure. Response format: the label of the selected entry.
Solution: B

The origin of these recorded values is patent US20260144788A1.
